# Test system: HT-29
# MEASUREMENT_NOTES: NCI tumour cell line growth inhibition, 48 h
Activity calls are given as the source filed them. No stated cut-off is given here; in the data, active = GI50 up to about 1.1 µM and inactive = higher.

{"COMPOUND": "CC(=O)Oc1ccc2cc(Oc3ccc(Cl)c(Cl)c3)c(=O)oc2c1", "GI50": "35.5 µM (inactive)"}
{"COMPOUND": "CC(=O)N1c2cc(/N=N/N(C)C)ccc2NC(=O)CC1C (configuration not stated)", "GI50": "> 100 µM (inactive)"}
{"COMPOUND": "N#CC(C(=N/NC(N)=S)/C(=N\\NC(N)=S)C(C#N)c1ccccc1)c1ccccc1 (configuration not stated)", "GI50": "> 10 µM (inactive)"}
{"COMPOUND": "N#Cc1c(=O)c2cccnc2n2c1[nH]c1ccccc12", "GI50": "> 100 µM (inactive)"}
{"COMPOUND": "C/C(=C\\CO)CC/C=C(\\C)CNc1ccccc1", "GI50": "19.4 µM (inactive)"}
{"COMPOUND": "O=[N+]([O-])c1cccc(Nc2nc(Cl)nc(Cl)n2)c1", "GI50": "> 100 µM (inactive)"}
{"COMPOUND": "Cc1oncc1/N=C1\\C=C(O)C(=O)c2ccccc21", "GI50": "3.65 µM (inactive)"}
{"COMPOUND": "O=[N+]([O-])c1cccc(C2=NN(c3ccccc3)C3c4ccccc4OCC23)c1 (configuration not stated)", "GI50": "> 100 µM (inactive)"}
{"COMPOUND": "O=C(N/N=C1/C(=O)N(c2ccc(Cl)cc2Cl)C(=O)C(=O)C1c1nc2ccccc2o1)c1ccccc1O (configuration not stated)", "GI50": "60.7 µM (inactive)"}
{"COMPOUND": "CC1=C2C3=C(C)C(=O)C(C)(C)CC[C@@]3(C)[C@]2(C)CCC(C)(C)C1=O", "GI50": "> 100 µM (inactive)"}
{"COMPOUND": "CN(N)/N=N/c1[nH]cnc1C(N)=O", "GI50": "99.8 µM (inactive)"}
{"COMPOUND": "CNC(=O)N(CCC#N)[C@H]1CCCC[C@@H]1N(C(=O)NC)c1ccccc1", "GI50": "> 100 µM (inactive)"}
{"COMPOUND": "CCC(=O)Nc1ccc(NS(=O)(=O)c2ccc(Cl)cc2)cc1", "GI50": "> 100 µM (inactive)"}
{"COMPOUND": "COc1cc2c(cc1OC)C(=O)N(c1ccc(O)cc1)C2", "GI50": "> 100 µM (inactive)"}
{"COMPOUND": "O=C(Nc1ccc(Cl)cc1)NS(=O)(=O)c1coc2ccccc2c1=O", "GI50": "> 10 µM (inactive)"}
{"COMPOUND": "C=CCn1c(=S)sc2c(C(=O)OCC)c3c(C)cc(C)cn3c2c1=O", "GI50": "> 100 µM (inactive)"}
{"COMPOUND": "CC(=O)OCC1OC(n2c3c(c(-c4ccco4)c(C#N)c2=S)CCC3)C(OC(C)=O)C(OC(C)=O)C1OC(C)=O (configuration not stated)", "GI50": "> 100 µM (inactive)"}
{"COMPOUND": "Oc1c2c(c(O)c3ccccc13)C1(N=N2)c2ccccc2Oc2ccccc21", "GI50": "6.11 µM (inactive)"}
{"COMPOUND": "CCOc1ccc(NC(=O)CC2SC(Nc3ccc(Cl)cc3)=NC2=O)cc1 (configuration not stated)", "GI50": "> 100 µM (inactive)"}
{"COMPOUND": "Cc1nc(NC(=S)NC(=O)c2ccc(Cl)c(Cl)c2)sc1C(=O)/C=C/c1ccccc1[N+](=O)[O-]", "GI50": "21.3 µM (inactive)"}
{"COMPOUND": "NS(=O)(=O)c1ccc(NC(=S)N/C=C2\\C(=O)Oc3ccccc3C2=O)cc1", "GI50": "53.5 µM (inactive)"}
{"COMPOUND": "O=c1[nH]c(=O)c2c([nH]1)[nH]c1ccccc12", "GI50": "> 100 µM (inactive)"}
